Hi there, I'd appreciate the recorded apparent KD of K4 kissing-loop reporter for every entry that follows.
system: K4 kissing-loop RNA reporter; assay: apparent KD of K4 kissing-loop reporter; higher = weaker reporter binding; conditions: Eterna round: R107; input ligand: none;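 further: bound reporter read as fluorescence of individual clusters on recovered sequencing chips by microscopy, with normalized cluster intensities fitted with a binding model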
# output: bare number, implied unit nM

Would you mind telling me what apparent KD of K4 kissing-loop reporter value was observed for UUAACCAACAGCGAUACCAGCGUGGAGUGAUGUUCCGAGGAUCGGAGUGAUGUUCCGAAGCGCCCUUGGCAGCGCAGAAGCGCCA [Exclusion Theophylline B GF9] ?
130

Would you kindly share the measured apparent KD of K4 kissing-loop reporter for GUAUCGCUAGGAGGAUAUUCCGUUUUUCAUAGCAAUGGCUAUGCGGAGUGAUGUUCCGAUUUACCGGAAGAAGGCCUAGUGAUAC [FMN B 24] ?
128

I would be grateful if you could share the reported apparent KD of K4 kissing-loop reporter for GCGCGUCAUGUCAGCGGUGACACUGUCGAUACCAGUGCCGAAAGGCGCCCUUGGCAGCGACGUGCUGGAGUGAUGUUCCAGCGUU [#2 Exclusion - Theophylline A Attempt #30 (HarryS)] .
151

Data request, read-out apparent KD of K4 kissing-loop reporter, for AAACUUGCAGUGAUGUUGCAAGUAGGUGAUACCAGCAUCGAAAGAUGCCCUUGGCAGCACCAUCUUGUAACAUAGGUAUCACCAA [(H1)-(H2)-(T1)-(T2)-(H)'-(T)'_Design4]
194

Dear colleague, I am looking for the recorded apparent KD of K4 kissing-loop reporter of the following sequence: AAUGUACAGGGAAGGAGCGUCGUCCAGUGAUGUUGGAGUUAAAUACCAGUGAUGUUGGUUAGACAGGUAGGUCGCCCUAAAGUGC [Exclusion Arginine B Gf 3]
92

Values compiled from the supplement of paper PMC9170038.
